B1: SNAP91 (parent)
chain: FAAPSPATTASPAKVDSSGVIDLF

# Variants of: B1
# EXPERIMENTAL_DETAILS: protein stability index of a GFP-peptide fusion (GPS, HEK-293T) (PSI 1-6); higher = more stable;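 note: lentivirally expressed fusions sorted by FACS into six bins by GFP to DsRed ratio, PSI derived from sequencing read proportions per bin multiplied by bin number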
# CONDITION_LABEL: c terminus: a fixed tail appended
Entries and their protein stability index
Respond using a number only.

• I21R = 3.23

Ask | Give the reported protein stability index for this variant. V15N
Reply | 2.52

Ask | Give the reported protein stability index for this variant. A2N
Reply | 3.45

Reference source for all entries: the supplement of paper PMC10567573
